Below is a list of entries, each paired with its recorded self-splicing fitness (ln) value.
assay explanation: self-splicing fitness, log relative to wild type (ln ratio); higher = more splicing; Tetrahymena group I intron in knt gene, E. coli kanamycin selection, DiMSum; sequences stand for … in CUCUCU…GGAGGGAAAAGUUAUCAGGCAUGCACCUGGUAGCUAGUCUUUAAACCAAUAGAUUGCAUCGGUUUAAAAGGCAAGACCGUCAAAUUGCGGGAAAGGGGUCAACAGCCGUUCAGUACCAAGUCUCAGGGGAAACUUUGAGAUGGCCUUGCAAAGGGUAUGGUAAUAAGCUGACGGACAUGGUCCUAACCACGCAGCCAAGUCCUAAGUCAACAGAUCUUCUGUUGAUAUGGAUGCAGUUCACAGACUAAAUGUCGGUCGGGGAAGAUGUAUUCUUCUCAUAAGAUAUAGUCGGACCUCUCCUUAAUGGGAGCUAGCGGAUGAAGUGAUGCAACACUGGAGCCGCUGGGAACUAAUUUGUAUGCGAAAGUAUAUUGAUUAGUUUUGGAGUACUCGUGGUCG;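 note: selection with 25 µg/mL kanamycin versus none on LB agar overnight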
condition set: 37 °C
I'd appreciate a reply containing only the number, no unit.

- ordered residues: "ACCCAGCAAUAUUACGAGCC"
  experimental value: -1.54
- ordered residues: "UAGGAGCAAUAUUACGAAAA"
  experimental value: -1.65
- ordered residues: "GUCCAGCAAUAUUACGUCAU"
  experimental value: 0.269
- ordered residues: "CGACAGCAAUAUUACGGUAU"
  experimental value: -2.45
- ordered residues: "UGAAAGCAAUAUUACGCCUG"
  experimental value: -0.244
- ordered residues: "CCGCAGCAAUAUUACGCAUG"
  experimental value: -0.661
- ordered residues: "UUUGAGCAAUAUUACGCGAG"
  experimental value: -0.997
- ordered residues: "AUAGAGCAAUAUUACGAGAA"
  experimental value: -1.82

Query: Give me measured self-splicing fitness (ln), please, for this sequence: AUCCAGCAAUAUUACGUCUA
Result: -0.497

Query: Give me measured self-splicing fitness (ln), please, for this sequence: GAUUAGCAAUAUUACGUCAC
Result: -2.2

Query: Give me measured self-splicing fitness (ln), please, for this sequence: GGGGAGCAAUAUUACGUGUA
Result: -2.23

Query: Give me measured self-splicing fitness (ln), please, for this sequence: UCGCAGCAAUAUUACGCUAG
Result: -2.18

Query: Give me measured self-splicing fitness (ln), please, for this sequence: AGGCAGCAAUAUUACGAUUC
Result: -0.305

Query: Give me measured self-splicing fitness (ln), please, for this sequence: UUGGAGCAAUAUUACGACAC
Result: -2.36

Query: Give me measured self-splicing fitness (ln), please, for this sequence: CGCAAGCAAUAUUACGCGAU
Result: -3.83

Query: Give me measured self-splicing fitness (ln), please, for this sequence: GUGGAGCAAUAUUACGAUGU
Result: -0.928

====

assay explanation: self-splicing fitness, log relative to wild type (ln ratio); higher = more splicing; Tetrahymena group I intron in knt gene, E. coli kanamycin selection, DiMSum; sequences stand for … in CUCUCU…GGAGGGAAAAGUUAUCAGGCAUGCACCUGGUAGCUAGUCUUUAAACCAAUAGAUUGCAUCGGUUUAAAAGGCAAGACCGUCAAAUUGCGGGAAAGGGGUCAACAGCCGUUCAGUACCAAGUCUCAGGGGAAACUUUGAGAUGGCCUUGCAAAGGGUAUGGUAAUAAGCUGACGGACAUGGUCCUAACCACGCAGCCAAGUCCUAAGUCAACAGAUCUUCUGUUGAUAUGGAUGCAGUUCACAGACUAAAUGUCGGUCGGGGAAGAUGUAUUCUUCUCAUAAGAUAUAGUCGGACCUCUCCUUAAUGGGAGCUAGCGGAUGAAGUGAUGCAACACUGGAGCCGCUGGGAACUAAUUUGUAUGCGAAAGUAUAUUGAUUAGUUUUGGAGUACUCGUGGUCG
condition set: 30 °C
// thresholds for self-splicing fitness (ln) classes: class A: < -3; class B: ≥ -3 and < -1; class C: ≥ -1

- ordered residues: "UGUAAGCAAUAUUACGUGGC"
  answer label: "class A"
- ordered residues: "UUAUAGCAAUAUUACGUGUC"
  answer label: "class A"
- ordered residues: "UAGCAGCAAUAUUACGAAAU"
  answer label: "class B"
- ordered residues: "ACACAGCAAUAUUACGCACA"
  answer label: "class B"
- ordered residues: "GUAAAGCAAUAUUACGAUUU"
  answer label: "class C"
- ordered residues: "CACUAGCAAUAUUACGGGAU"
  answer label: "class A"
- ordered residues: "UCAGAGCAAUAUUACGCAGU"
  answer label: "class C"
- ordered residues: "UUAGAGCAAUAUUACGGAAA"
  answer label: "class B"
- ordered residues: "UCACAGCAAUAUUACGCAAA"
  answer label: "class B"
- ordered residues: "UGUAAGCAAUAUUACGCAGC"
  answer label: "class A"

Query: // bin(item) where item = GUUCAGCAAUAUUACGAACU
Result: class A

Query: // bin(item) where item = AGGUAGCAAUAUUACGAGUC
Result: class A

====

assay explanation: self-splicing fitness, log relative to wild type (ln ratio); higher = more splicing; Tetrahymena group I intron in knt gene, E. coli kanamycin selection, DiMSum; sequences stand for … in CUCUCU…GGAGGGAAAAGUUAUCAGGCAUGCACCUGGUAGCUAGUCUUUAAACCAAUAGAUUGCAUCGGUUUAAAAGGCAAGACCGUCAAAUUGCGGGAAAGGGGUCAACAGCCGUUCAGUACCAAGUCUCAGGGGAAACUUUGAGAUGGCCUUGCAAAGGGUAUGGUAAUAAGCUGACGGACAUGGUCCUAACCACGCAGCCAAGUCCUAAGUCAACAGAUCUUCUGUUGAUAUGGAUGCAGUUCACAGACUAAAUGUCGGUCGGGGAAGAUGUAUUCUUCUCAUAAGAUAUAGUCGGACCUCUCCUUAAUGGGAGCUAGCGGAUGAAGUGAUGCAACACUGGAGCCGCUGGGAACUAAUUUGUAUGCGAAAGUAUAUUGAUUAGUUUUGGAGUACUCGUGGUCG
condition set: 37 °C
Below is a list of entries, each paired with its recorded self-splicing fitness (ln) value.
I'd appreciate a reply containing only the number, no unit.

Take a look at these entries with their results.
- ordered residues: "GAUAAGCAAUAUUACGGGCC"
  self-splicing fitness (ln): -1.13
- ordered residues: "CGGUAGCAAUAUUACGACAA"
  self-splicing fitness (ln): 0.305
- ordered residues: "GUAUAGCAAUAUUACGGUCU"
  self-splicing fitness (ln): -0.548
- ordered residues: "CGAUAGCAAUAUUACGUAUU"
  self-splicing fitness (ln): -2.61

Query: Give me measured self-splicing fitness (ln), please, for this sequence: UCAAAGCAAUAUUACGCGAG
Result: -0.54

Query: Give me measured self-splicing fitness (ln), please, for this sequence: CUCUAGCAAUAUUACGAGCA
Result: -3.04

Query: Give me measured self-splicing fitness (ln), please, for this sequence: GCGUAGCAAUAUUACGCCAC
Result: -2.26

Query: Give me measured self-splicing fitness (ln), please, for this sequence: AGUCAGCAAUAUUACGAAAA
Result: -1.3

Query: Give me measured self-splicing fitness (ln), please, for this sequence: ACGAAGCAAUAUUACGACUA
Result: -0.184

Query: Give me measured self-splicing fitness (ln), please, for this sequence: GUAUAGCAAUAUUACGCUCG
Result: -0.0296

Query: Give me measured self-splicing fitness (ln), please, for this sequence: AGAUAGCAAUAUUACGAGAG
Result: -2.37

Query: Give me measured self-splicing fitness (ln), please, for this sequence: UCGCAGCAAUAUUACGCUGG
Result: -2

Query: Give me measured self-splicing fitness (ln), please, for this sequence: CGCUAGCAAUAUUACGUGUC
Result: -2.78

Query: Give me measured self-splicing fitness (ln), please, for this sequence: GCUGAGCAAUAUUACGCGAA
Result: -2.91

Query: Give me measured self-splicing fitness (ln), please, for this sequence: CGUCAGCAAUAUUACGGACU
Result: 0.0847

Query: Give me measured self-splicing fitness (ln), please, for this sequence: UUAUAGCAAUAUUACGCAUG
Result: -0.364

====

assay explanation: self-splicing fitness, log relative to wild type (ln ratio); higher = more splicing; Tetrahymena group I intron in knt gene, E. coli kanamycin selection, DiMSum; sequences stand for … in CUCUCU…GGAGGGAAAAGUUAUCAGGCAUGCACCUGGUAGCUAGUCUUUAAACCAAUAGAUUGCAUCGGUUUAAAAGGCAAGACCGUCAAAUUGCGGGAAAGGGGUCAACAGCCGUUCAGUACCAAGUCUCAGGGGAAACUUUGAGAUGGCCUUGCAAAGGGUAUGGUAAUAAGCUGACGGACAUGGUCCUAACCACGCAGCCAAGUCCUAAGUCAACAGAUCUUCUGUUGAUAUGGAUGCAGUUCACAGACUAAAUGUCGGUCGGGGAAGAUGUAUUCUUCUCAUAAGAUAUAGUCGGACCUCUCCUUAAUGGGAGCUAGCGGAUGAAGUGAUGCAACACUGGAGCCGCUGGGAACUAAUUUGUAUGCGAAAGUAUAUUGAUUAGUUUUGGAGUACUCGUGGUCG
condition set: 37 °C
Below is a list of entries, each paired with its recorded self-splicing fitness (ln) value.
I'd appreciate a reply containing only the number, no unit.

- ordered residues: "GAUUAGCAAUAUUACGACUG"
  self-splicing fitness (ln): -0.313
- ordered residues: "CGCCAGCAAUAUUACGCCGA"
  self-splicing fitness (ln): -1.65
- ordered residues: "AUCUAGCAAUAUUACGGAUU"
  self-splicing fitness (ln): -2.38
- ordered residues: "AGAUAGCAAUAUUACGGACG"
  self-splicing fitness (ln): -0.892
- ordered residues: "AAUGAGCAAUAUUACGAGUG"
  self-splicing fitness (ln): -2.23
- ordered residues: "ACUAAGCAAUAUUACGCAUU"
  self-splicing fitness (ln): -0.321
- ordered residues: "UUGGAGCAAUAUUACGAAUG"
  self-splicing fitness (ln): -2.31
- ordered residues: "CUACAGCAAUAUUACGUUUG"
  self-splicing fitness (ln): -0.34

Query: Give me measured self-splicing fitness (ln), please, for this sequence: AGCGAGCAAUAUUACGCACC
Result: -0.411

Query: Give me measured self-splicing fitness (ln), please, for this sequence: CGUAAGCAAUAUUACGAGCG
Result: -2.67

Query: Give me measured self-splicing fitness (ln), please, for this sequence: CGGGAGCAAUAUUACGUCUA
Result: -1.82

Query: Give me measured self-splicing fitness (ln), please, for this sequence: UGACAGCAAUAUUACGCAGG
Result: -1.4

Query: Give me measured self-splicing fitness (ln), please, for this sequence: CUUCAGCAAUAUUACGAAAA
Result: -3.03

Query: Give me measured self-splicing fitness (ln), please, for this sequence: GGGUAGCAAUAUUACGCCAC
Result: -1.72

Query: Give me measured self-splicing fitness (ln), please, for this sequence: AUCGAGCAAUAUUACGUGCG
Result: -1.73

Query: Give me measured self-splicing fitness (ln), please, for this sequence: GAACAGCAAUAUUACGAAUA
Result: -0.755

Where do these numbers come from? They come from the supplement of paper PMC7877785.
